// data source = PubChem BioAssay AID1159580

assay.method.text: chemical genetic growth profiling, strain panel (AID 1159580);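 also: tested at 20 µM; growth read once vehicle control cultures reached saturation at 30 °C; lower values mean less growth of the strain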
measurement.parameters: S. cerevisiae deletion strains, growth OD, locus YNL250W, strain rad50
Hit rate of the full screen: of about 5,500 compounds, about 2,000 (36%) were called active. Another 18% or so got no clear call; they are omitted. Rule as the data show it: active = normalized growth mostly below about 0.91 (no sharp cut-off); inconclusive = no clear call, values can overlap the other calls; inactive = mostly above about 0.92. The list shows a part of the results.
Mark one answer only. Choices: YES for active, NO for inactive

{"compound": "Nc1ccn(C2O[C@H](CO)[C@@H](O)[C@@H]2O)c(=O)n1 (stereo partly specified)", "group": "NO"}

Query: What classification did O=C(C1CCCCC1)N1CC(=O)N2CCc3ccccc3C2C1 (stereo unspecified) end up with in this test?
Reply: NO

Query: How about this compound: COC(=O)C(O)c1ccccc1 (stereo unspecified)
Reply: NO

Query: Record: O=S1OCC2C(CO1)C1(Cl)C(Cl)=C(Cl)C2(Cl)C1(Cl)Cl (stereo unspecified)
Reply: NO

Query: Next compound: CC1(C)C2CC(=O)[C@]3(C)C(CC[C@@]4(C)[C@H](c5ccoc5)OC(=O)[C@H]5O[C@]543)[C@@]2(C)C=C[C@@H]1O (stereo partly specified)
Reply: NO

Query: Entry Cc1ccc(C)c(OCCCC(C)(C)C(=O)O)c1 please
Reply: YES
